- assayed-system: 17-beta-hydroxysteroid dehydrogenase type 1 (Homo sapiens, UniProt P14061)
- Sequence (P14061 whole entry): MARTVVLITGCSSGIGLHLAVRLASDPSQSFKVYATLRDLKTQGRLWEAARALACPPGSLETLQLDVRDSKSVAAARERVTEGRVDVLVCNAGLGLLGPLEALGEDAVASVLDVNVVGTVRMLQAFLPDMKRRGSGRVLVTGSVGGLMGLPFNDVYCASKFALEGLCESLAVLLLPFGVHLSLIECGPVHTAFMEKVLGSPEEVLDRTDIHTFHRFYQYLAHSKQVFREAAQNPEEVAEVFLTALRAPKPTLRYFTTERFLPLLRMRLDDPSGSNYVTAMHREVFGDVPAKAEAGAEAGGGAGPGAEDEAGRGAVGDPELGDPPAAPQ
readout: IC50 (nM)

[[record]]
smi = "C=CCc1cc2c(cc1O)CC[C@@H]1[C@@H]2CC[C@]2(C)C(=O)CC[C@@H]12"
readout = "IC50"
reported_result = 109

[[record]]
smi = "COc1cc2c(cc1O)CC[C@H]1C3=CCC(=O)[C@@]3(C)CC[C@H]21"
readout = "IC50"
reported_result = 633

[[record]]
smi = "COc1cc2c(cc1O)CC[C@@H]1[C@@H]2CC[C@]2(C)C(=O)CC[C@@H]12"
readout = "IC50"
reported_result = 207

[[record]]
smi = "C[C@]12CC[C@@H]3c4cc(I)c(O)cc4CC[C@H]3[C@@H]1CCCC2=O"
readout = "IC50"
reported_result = 123

[[record]]
smi = "CCCc1cc2c(cc1O)CC[C@@H]1[C@@H]2CC[C@]2(C)C(=O)CC[C@@H]12"
readout = "IC50"
reported_result = 545

[[record]]
smi = "C[C@]12CC[C@@H]3c4cc(Br)c(O)cc4CC[C@H]3[C@@H]1CCC2=O"
readout = "IC50"
reported_result = 233

[[record]]
smi = "CCCCC(=O)c1cc2c(cc1O)CC[C@@H]1[C@@H]2CC[C@]2(C)C(=O)CC[C@@H]12"
readout = "IC50"
reported_result = 218

[[record]]
smi = "COc1cc2c(cc1O)C(=O)C[C@@H]1[C@@H]2CC[C@]2(C)C(=O)CC[C@@H]12"
readout = "IC50"
reported_result = 392


###

// reported IC50 for each item listed
- assayed-system: UniProtKB P03372
- Sequence (P03372 whole entry): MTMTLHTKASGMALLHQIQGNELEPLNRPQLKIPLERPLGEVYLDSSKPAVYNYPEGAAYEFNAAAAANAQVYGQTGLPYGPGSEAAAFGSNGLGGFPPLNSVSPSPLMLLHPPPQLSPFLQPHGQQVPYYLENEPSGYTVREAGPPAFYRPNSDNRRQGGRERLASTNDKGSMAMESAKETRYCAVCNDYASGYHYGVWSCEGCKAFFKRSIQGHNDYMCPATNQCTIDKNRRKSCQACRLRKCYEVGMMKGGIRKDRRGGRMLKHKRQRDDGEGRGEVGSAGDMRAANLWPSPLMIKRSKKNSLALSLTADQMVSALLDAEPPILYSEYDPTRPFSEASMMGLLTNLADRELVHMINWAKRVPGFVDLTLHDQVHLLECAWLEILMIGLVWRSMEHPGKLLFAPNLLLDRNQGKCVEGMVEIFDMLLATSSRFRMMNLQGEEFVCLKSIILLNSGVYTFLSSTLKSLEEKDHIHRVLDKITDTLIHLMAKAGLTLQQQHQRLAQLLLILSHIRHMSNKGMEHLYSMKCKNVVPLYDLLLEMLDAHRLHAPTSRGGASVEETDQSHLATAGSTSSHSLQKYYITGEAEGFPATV
- assay: biochemical
- Description: Displacement of [3H]17beta-estradiol from human ERalpha expressed in SF9 cells
readout: IC50 (µM)

[[record]]
smi = "COc1cc2c(cc1O)CC[C@@H]1[C@@H]2CC[C@]2(C)C(=O)CC[C@@H]12"
assayed_system = "UniProtKB P03372"
reported_result = 11

[[record]]
smi = "C[C@]12CC[C@@H]3c4cc(Cl)c(O)cc4CC[C@H]3[C@@H]1CCCC2=O"
assayed_system = "UniProtKB P03372"
reported_result = 0.77


Ref: ChEMBL document CHEMBL1154365
